Test system: RWP1 cells
measurement.description: Effect of anti-FZD5 Fabs on proliferation of pancreatic cancer cell lines (percent growth inhibition)
Format: cell-based, human
test.conditions: Fab 10 μg/ml
reported.property: percent growth inhibition, RWP1 10 μg/ml (%)
Answer with a number only, understood to be in %.

Fab-2898: anti-FZD5 Fab with antibody variable region Fv-2898; CDR SEQ ID NOs: 35, 36, 37, 76, 113, 152 (antibody, V domains shown) VH: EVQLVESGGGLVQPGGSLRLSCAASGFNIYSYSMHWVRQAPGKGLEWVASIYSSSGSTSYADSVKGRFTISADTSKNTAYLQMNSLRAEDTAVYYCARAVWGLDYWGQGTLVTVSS VL: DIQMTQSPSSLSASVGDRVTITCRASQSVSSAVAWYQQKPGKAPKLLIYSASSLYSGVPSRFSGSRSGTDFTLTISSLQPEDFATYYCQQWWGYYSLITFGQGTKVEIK | 26.93

For Fab-2921: anti-FZD5 Fab with antibody variable region Fv-2921; CDR SEQ ID NOs: 35, 36, 60, 98, 136, 162 (antibody, V domains shown) VH: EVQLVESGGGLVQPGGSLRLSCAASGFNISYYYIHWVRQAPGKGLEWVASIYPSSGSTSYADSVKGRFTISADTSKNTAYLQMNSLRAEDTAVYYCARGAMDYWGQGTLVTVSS VL: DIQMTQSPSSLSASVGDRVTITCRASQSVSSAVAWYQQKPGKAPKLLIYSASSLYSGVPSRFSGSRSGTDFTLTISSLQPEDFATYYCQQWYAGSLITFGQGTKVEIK , what is its reported percent growth inhibition, RWP1 10 μg/ml?
−0.10
